tgt: VEGF (R&D systems, Minneapolis, Minn.) (UniProt P15692-4 27-191, limits assumed)
Sequence (P15692 other isoform, or with tags, fused parts or gaps limits assumed): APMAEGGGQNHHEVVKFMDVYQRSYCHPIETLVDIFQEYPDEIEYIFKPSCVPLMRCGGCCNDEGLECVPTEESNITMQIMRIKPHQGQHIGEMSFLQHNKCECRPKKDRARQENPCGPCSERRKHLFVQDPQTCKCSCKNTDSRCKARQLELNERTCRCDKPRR
protocolDetails: BIAcore SPR
readoutType: kon (M⁻¹ s⁻¹)
State the answer as a number, implicitly in M⁻¹ s⁻¹.

Below, 2 binders whose answers are already recorded.
86 (seventh row of Table 7) (antibody, human IgG1, V domains shown, defined here by its substitutions; copies: 2 + 2) VH: EVQLVESGGGLVQPGGSLRLSCAASGYTFTFYGMNWVRQAPGKGLEWVGWINTYTGEPTYAADFKRRFTFSLDTSKSTAYLQMNSLRAEDTAVYYCAKYPHYDGGSHWYFDVWGQGTLVTVSS VL: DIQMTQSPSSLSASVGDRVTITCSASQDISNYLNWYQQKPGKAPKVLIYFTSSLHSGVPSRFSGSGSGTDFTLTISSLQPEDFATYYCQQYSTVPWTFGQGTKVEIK | 968000
92 (antibody, human IgG1, V domains shown) VH: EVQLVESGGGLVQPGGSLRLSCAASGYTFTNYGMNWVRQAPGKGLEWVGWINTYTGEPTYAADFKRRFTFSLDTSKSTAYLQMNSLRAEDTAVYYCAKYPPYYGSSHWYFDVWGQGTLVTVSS VL: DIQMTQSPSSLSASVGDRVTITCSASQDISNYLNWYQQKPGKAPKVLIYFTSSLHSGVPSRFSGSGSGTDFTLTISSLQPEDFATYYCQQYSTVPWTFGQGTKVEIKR | 367000

### Prompt Entry under review: 95 (antibody, human IgG1, V domains shown) VH: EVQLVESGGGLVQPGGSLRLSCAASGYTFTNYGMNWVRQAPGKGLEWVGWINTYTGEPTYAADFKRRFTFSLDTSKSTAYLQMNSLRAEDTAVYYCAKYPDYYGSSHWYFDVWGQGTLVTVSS VL: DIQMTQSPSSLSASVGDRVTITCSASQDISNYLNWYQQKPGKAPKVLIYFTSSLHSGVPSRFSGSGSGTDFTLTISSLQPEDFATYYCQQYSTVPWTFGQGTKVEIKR . Reported kon?
### Response 262000
